system: T-47D breast; assay: NCI-60 one-dose screen, 48 h (100 = growth as untreated, 0 = no growth, -100 = all killed); details: 10 µM unless noted
This is part of a sample that, as a whole, favours compounds with a hit. Of some 83,000 tested, about 20% had one in any assay.
Can you tell me growth for the items I'm about to list?
Answers are plain numbers, in %.

Exercise: For the compound shown here, O=C(Cn1c2c(c3ccccc31)CCCC2)Nc1ccc(-c2nc3ccccc3s2)cc1 , give the reported growth.
Key: 80.1

Exercise: Then what about the compound Oc1c(Cl)cc(Cl)c2ccc(Cn3cc(-c4cc(F)cc(F)c4)nn3)nc12 ?
Key: 40.4

Exercise: Let us now turn to O=C(Cn1cc(CN2CCCCCC2)nn1)Nc1ccc2c(ccn2Cc2ccccc2)c1
Key: 69.8

Exercise: Thanks! And Cc1cc(Cl)ccc1NC(=O)c1cc2ccccc2cc1O ?
Key: 12.6

Exercise: Record: COc1cc(-c2nc(SCCC(C)C)nc(Nc3ccccc3Cl)c2C#N)cc(OC)c1OC
Key: 81.5

Required: growth, one value per compound below.
1. O=C1c2cccc3cccc(c23)C(=O)N1N1C(=O)c2cccc3c(N4CCOCC4)ccc(c23)C1=O
2. CN1CCN(c2ccc(NC(=O)c3cncnc3Nc3ccc(OCc4ccccn4)c(Cl)c3)cc2)CC1
3. CC1(C)CC2=C3C=C[C@@H]4[C@@]5(C)CCC(=O)C(C)(C)[C@@H]5CC[C@@]4(C)[C@]3(C)CC[C@@]2(C(=O)O)CC1=O
4. COc1cccc([C@H]2c3[nH]c4ccccc4c3C[C@H]3C(=O)N(CCCCCCC(=O)NO)CC(=O)N23)c1

Key:
1: 91.7; 2: 53.7; 3: 74.4; 4: 31.5

Record growth for all entries; do not skip any.
1. CC(C)NC1CCC(Nc2ccnc3cc(Cl)ccc23)CC1 (stereo unspecified)
2. Nc1c(C(=O)Nc2ccccc2Cl)sc2nc3c(cc12)C(O)CCC3 (stereo unspecified)

Key:
[80.3, 38.6]

I need growth for every entry listed below, if you could help.
1. COc1ccc2c(c1)[n+]([O-])c(C(=O)/C=C/C=C(\Cl)c1cc(OC)c(OC)c(OC)c1)c(C)[n+]2[O-]
2. Cc1cc(Cl)ccc1Nc1nc(C(F)(F)F)ccc1C(=O)N/N=C/c1ccc([N+](=O)[O-])cc1
3. OCCNCCCOc1ccc2ncnc(Nc3ccc(Oc4cccc(C(F)(F)F)c4)c(Cl)c3)c2c1
4. O=S(=O)(Nc1cc(Br)c(O)c2ccccc12)c1ccc(F)cc1

Key:
87.1
-1.52
38.7
6.12

For each of the items listed, what is its growth?
1. CC(C)c1ccc(COCc2cc(CN3CCCC3)c(O)c3ncccc23)cc1
2. CCOC(=O)c1ccc2[nH]c(O)c(C(=Nc3ccc(N(C)C(=O)CN4CCN(C)CC4)cc3)c3ccccc3)c2c1
3. N#Cc1nc(-c2ccccc2)oc1S(=O)(=O)N1CCOCC1
4. CC(C)(C)n1cc(-c2ccnc(NCCNS(=O)(=O)c3cccc4ccccc34)c2)c(-c2cccc(F)c2)n1
5. COc1cccc(NC(=O)Cn2cc(CN3CCN(c4ccnc5cc(Cl)ccc45)CC3)nn2)c1
6. COc1ccc2[nH]cc(C(c3cc(F)cc(F)c3)c3c[nH]c4ccc(OC)cc34)c2c1
7. Oc1c(Cl)cc(Cl)c2ccc(Cn3cc(-c4ccc(C(F)(F)F)cc4)nn3)nc12
8. CC1=Nc2cnc(Nc3ccc(OCCN4CCCC4)cc3)nc2Nc2ccccc21

Key:
1. -7.55
2. 21.6
3. 65.4
4. -12.6
5. 70.7
6. 43.1
7. 55.4
8. 61.1

Respectfully, I request growth for each entry included below.
1. Fc1ccc(Nc2nc3nonc3nc2Nc2ccc(I)cc2)cc1
2. Cc1ccc(-c2cc(-c3ccc(Cl)cc3)nc(NC(=O)c3cccnc3)n2)cc1

Key:
[-26.7, 96.3]

Exercise: Name the recorded growth for CCn1c(SCC(=O)c2ccc(Br)cc2)nnc1-c1ccncc1 .
Key: 105
